- subject of test: T1, human GIP receptor (human) (UniProt P48546)
- T1 sequence (looked up): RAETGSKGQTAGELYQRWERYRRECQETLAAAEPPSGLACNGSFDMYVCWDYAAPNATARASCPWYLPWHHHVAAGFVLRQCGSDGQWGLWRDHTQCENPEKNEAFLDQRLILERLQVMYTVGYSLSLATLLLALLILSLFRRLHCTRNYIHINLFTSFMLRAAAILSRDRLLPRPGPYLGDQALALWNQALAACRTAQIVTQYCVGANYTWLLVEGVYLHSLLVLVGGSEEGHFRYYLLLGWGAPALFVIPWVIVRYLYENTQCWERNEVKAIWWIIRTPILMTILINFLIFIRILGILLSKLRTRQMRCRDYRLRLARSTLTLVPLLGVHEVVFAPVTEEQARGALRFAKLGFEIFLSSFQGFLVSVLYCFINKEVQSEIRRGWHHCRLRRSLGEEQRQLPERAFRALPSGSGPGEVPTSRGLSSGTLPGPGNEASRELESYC
- assay info: cell-based or functional assay
Non-standard residues stand in square brackets, D forms with d. No end group written: not given here. αMePhe(2-F) = C[C@](N)(Cc1ccccc1F)C(=O)O; Aib = CC(C)(N)C(=O)O
Under this convention, condition met denotes cAMP Rel EC50, nM (1% HSA) strictly below 8 nM and condition not met denotes cAMP Rel EC50, nM (1% HSA) at or above 8 nM.

Check if cAMP Rel EC50, nM (1% HSA) falls below 8 nM for YXQGTFTSDFSQXLDKKAQXAFIEYLLEAGPSSXAPPPSGT (no C-terminal amide; synthetic construct; SITE 2: note = 2-Aminoisobutyric Acid; SITE 13: note = alpha-methyl-leucine; SITE 17: note = Lysine is chemically modified through conjugation of the epsilon-amino group of the Lysine side chain with (2-[2-(2-Amino-ethoxy)-ethoxy]-acetyl)-(gamma-Glu)-CO-(CH2) 16-CO2H; SITE 20: n) [Example 780] . condition not met

Check if cAMP Rel EC50, nM (1% HSA) falls below 8 nM for YXQGTFTSDXSXXLDXKAQXQFIEXLLAGGPSSGAPPPSGSEE (non-natural residues, (γGlu)2-diacid acylated Lys, C-terminal amide; synthetic construct; SITE 2: note = 2-Aminoisobutyric Acid; SITE 10: note = 3-(4-Pyridyl)-L-alanine; SITE 12: note = L-ornithine; SITE 13: note = alpha-methyl-leucine; SITE 16: note = L-ornithine; SITE 17: note = Lysine is chemically modified through conjugation of the epsilon-amino group of the Lys) [Example 995] . condition met

Check if cAMP Rel EC50, nM (1% HSA) falls below 8 nM for YXQGTFTSDFSXXLDKKAQXAFIEYLLEGGPSSXAPPPGGS (not fully specified; synthetic construct; SITE 2: note = 2-Aminoisobutyric Acid; SITE 12: note = L-ornithine; SITE 13: note = alpha-methyl-leucine; SITE 17: note = Lysine is chemically modified through conjugation of the epsilon-amino group of the Lysine side chain with (gamma-Glu)2-CO-(CH2)16-CO2H; SITE 20: note = 2-Am) [Example 770] . condition not met

Check if cAMP Rel EC50, nM (1% HSA) falls below 8 nM for YXQGTXTSDXSIXLDXKAQXXFIEXLLEGGPSSXEPPPE (synthetic construct; SITE 2: note = 2-Aminoisobutyric Acid; SITE 6: note = alpha-methyl-2-fluoro-L-phenylalanine; SITE 10: note = 3-(4-Pyridyl)-L-alanine; SITE 13: note = alpha-methyl-leucine; SITE 16: note = L-ornithine; SITE 17: note = Lysine is chemically modified through conjugation of the epsil) [Example 373] . condition met

Check if cAMP Rel EC50, nM (1% HSA) falls below 8 nM for YXQGTFTSDXSQXLDXKAQXAFIEYLIEAGPSSGAPPPSGSE (not fully specified; acylated lysine (γGlu)2-C18 diacid; non-natural residues; C-terminal amide; synthetic construct; SITE 2: note = 2-Aminoisobutyric Acid; SITE 10: note = 3-(4-Pyridyl)-L-alanine; SITE 13: note = alpha-methyl-leucine; SITE 16: note = L-ornithine; SITE 17: note = Lysine is chemically modified through conjugation of the epsilon-amino group of the Lysine side chain with (gamma-Gl)) [Example 1023] . condition not met

Check if cAMP Rel EC50, nM (1% HSA) falls below 8 nM for YXQGTFTSDXSXXLDKKAQXAFIEYLIAGGPSSGAPPPSESE (Aib, 4Pal, Orn, αMeL, Me4Pal; acylated Lys; C-terminal amide; synthetic construct; SITE 2: note = 2-Aminoisobutyric Acid; SITE 10: note = 3-(4-Pyridyl)-L-alanine; SITE 12: note = L-ornithine; SITE 13: note = alpha-methyl-leucine; SITE 17: note = Lysine is chemically modified through conjugation of the epsilon-amino group of the Lysine side chain with (gamma-Gl)) [Example 1010] . condition not met

Check if cAMP Rel EC50, nM (1% HSA) falls below 8 nM for YXQGTFTSDXSRXLDKKAQXAFIEYLIEXGESSGAPPPSGS (acylated; synthetic construct; SITE 2: note = 2-Aminoisobutyric Acid; SITE 10: note = 3-(4-Pyridyl)-L-alanine; SITE 13: note = alpha-methyl-leucine; SITE 17: note = Lysine is chemically modified through conjugation of the epsilon-amino group of the Lysine side chain with (2-[2-(2-Amino-ethoxy)-ethoxy]-acetyl)) [Example 224] . condition not met

Check if cAMP Rel EC50, nM (1% HSA) falls below 8 nM for YXQGTFTSDXSXXLDXKAQXAFIEYLIAGGPSSGAPPPSESE (Aib, 4Pal, Orn, αMeL, Me4Pal; K (γGlu)2-C18 diacid; amide; synthetic construct; SITE 2: note = 2-Aminoisobutyric Acid; SITE 10: note = 3-(4-Pyridyl)-L-alanine; SITE 12: note = L-ornithine; SITE 13: note = alpha-methyl-leucine; SITE 16: note = L-ornithine; SITE 17: note = Lysine is chemically modified through conjugation of the epsilon-amino group of the Lys) [Example 1012] . condition not met

Check if cAMP Rel EC50, nM (1% HSA) falls below 8 nM for Y[Aib]QGT[αMePhe(2-F)]TSDYSKLLDKIAQKAFIEYLIEGGPSSGAPPPSGE-NH2 (not fully specified (residue 20)) [Example 356] . condition not met

Check if cAMP Rel EC50, nM (1% HSA) falls below 8 nM for YXQGTXTSDXSIXLDXKAQXAFIEYLEEGGPSSGAPPPS (synthetic construct; SITE 2: note = 2-Aminoisobutyric Acid; SITE 6: note = alpha-methyl-2-fluoro-L-phenylalanine; SITE 10: note = 3-(4-Pyridyl)-L-alanine; SITE 13: note = alpha-methyl-leucine; SITE 16: note = L-ornithine; SITE 17: note = Lysine is chemically modified through conjugation of the epsil) [Example 441] . condition met

Check if cAMP Rel EC50, nM (1% HSA) falls below 8 nM for YXQGTXTSDYXIXLDXKAQXXFIEXLEEGGPSSGEPPPEEG (synthetic construct; SITE 2: note = 2-Aminoisobutyric Acid; SITE 6: note = alpha-methyl-2-fluoro-L-phenylalanine; SITE 11: note = alpha-methyl-L-serine; SITE 13: note = alpha-methyl-leucine; SITE 16: note = L-ornithine; SITE 17: note = Lysine is chemically modified through conjugation of the epsilon) [Example 403] . condition not met
